EXPERIMENT NOTES: Maximum plasma concentration (Cmax) in dog at a dose of 1 mg/kg
Format: ADME, organism-based, Canis lupus familiaris
Design: dose 1 mg/kg
Listing of recorded Cmax by entry.
READOUT NAME: Cmax (nM)

{"SMILES INPUT": "O=C(Cn1c(Cl)cnc(NCC(F)(F)c2cccc[n+]2[O-])c1=O)NCc1cc(F)ccc1C(F)(F)F", "UNIT INFO": "nM", "VALUE MEASURED": 990}
{"SMILES INPUT": "O=C(Cn1c(Cl)cnc(NCC(F)(F)c2cccc[n+]2[O-])c1=O)NCc1cccc(Cl)c1Cl", "UNIT INFO": "nM", "VALUE MEASURED": 290}
{"SMILES INPUT": "O=C(Cn1c(Cl)cnc(NCC(F)(F)c2cccc[n+]2[O-])c1=O)NCc1c(F)ccc(F)c1F", "UNIT INFO": "nM", "VALUE MEASURED": 1510}
{"SMILES INPUT": "O=C(Cn1c(Cl)cnc(NCC(F)(F)c2cccc[n+]2[O-])c1=O)NCc1cc(Cl)ccc1F", "UNIT INFO": "nM", "VALUE MEASURED": 480}

---

EXPERIMENT NOTES: Maximum plasma concentration (Cmax) in dog at a dose of 1 mg/kg
Format: ADME, organism-based, Canis lupus familiaris
Parameters: dose 1 mg/kg
// returns false unless Cmax is strictly below 2000 nM, in which case true

{"SMILES INPUT": "O=C(Cn1c(Cl)cnc(NCC(F)(F)c2cccc[n+]2[O-])c1=O)NCc1ccccc1", "QUALITATIVE LABEL": "false"}
{"SMILES INPUT": "O=C(Cn1c(Cl)cnc(NCC(F)(F)c2cccc[n+]2[O-])c1=O)NCc1cc(Cl)ccc1Cl", "QUALITATIVE LABEL": "true"}
{"SMILES INPUT": "O=C(Cn1c(Cl)cnc(NCC(F)(F)c2cccc[n+]2[O-])c1=O)NCc1ccccc1F", "QUALITATIVE LABEL": "false"}
{"SMILES INPUT": "O=C(Cn1c(Cl)cnc(NCC(F)(F)c2cccc[n+]2[O-])c1=O)NCc1c(F)cccc1F", "QUALITATIVE LABEL": "true"}
{"SMILES INPUT": "O=C(Cn1c(Cl)cnc(NCC(F)(F)c2cccc[n+]2[O-])c1=O)NCc1cc(F)ccc1F", "QUALITATIVE LABEL": "false"}
{"SMILES INPUT": "O=C(Cn1c(Cl)cnc(NCC(F)(F)c2cccc[n+]2[O-])c1=O)NCc1ccc(F)c(Cl)c1", "QUALITATIVE LABEL": "true"}
{"SMILES INPUT": "COc1cccc(CNC(=O)Cn2c(Cl)cnc(NCC(F)(F)c3cccc[n+]3[O-])c2=O)c1", "QUALITATIVE LABEL": "true"}
{"SMILES INPUT": "Cc1cccc(CNC(=O)Cn2c(Cl)cnc(NCC(F)(F)c3cccc[n+]3[O-])c2=O)c1", "QUALITATIVE LABEL": "false"}
{"SMILES INPUT": "CCOc1ccccc1CNC(=O)Cn1c(Cl)cnc(NCC(F)(F)c2cccc[n+]2[O-])c1=O", "QUALITATIVE LABEL": "true"}
{"SMILES INPUT": "Cc1ccccc1CNC(=O)Cn1c(Cl)cnc(NCC(F)(F)c2cccc[n+]2[O-])c1=O", "QUALITATIVE LABEL": "true"}
{"SMILES INPUT": "O=C(Cn1c(Cl)cnc(NCC(F)(F)c2cccc[n+]2[O-])c1=O)NCc1ccccc1OC(F)(F)F", "QUALITATIVE LABEL": "true"}
{"SMILES INPUT": "O=C(Cn1c(Cl)cnc(NCC(F)(F)c2cccc[n+]2[O-])c1=O)NCc1ccccc1Cl", "QUALITATIVE LABEL": "true"}
{"SMILES INPUT": "O=C(Cn1c(Cl)cnc(NCC(F)(F)c2cccc[n+]2[O-])c1=O)NCc1cccc(Br)c1", "QUALITATIVE LABEL": "true"}
{"SMILES INPUT": "O=C(Cn1c(Cl)cnc(NCC(F)(F)c2cccc[n+]2[O-])c1=O)NCc1ncccc1F", "QUALITATIVE LABEL": "true"}
{"SMILES INPUT": "O=C(Cn1c(Cl)cnc(NCC(F)(F)c2cccc[n+]2[O-])c1=O)NCc1ccccc1OCC(F)(F)F", "QUALITATIVE LABEL": "false"}
{"SMILES INPUT": "O=C(Cn1c(Cl)cnc(NCC(F)(F)c2cccc[n+]2[O-])c1=O)NCc1cccc(OC(F)F)c1", "QUALITATIVE LABEL": "true"}
{"SMILES INPUT": "O=C(Cn1c(Cl)cnc(NCC(F)(F)c2ccccn2)c1=O)NCc1ccccc1F", "QUALITATIVE LABEL": "true"}
